# credit: ChEMBL document CHEMBL2021861

biological target: Aminopeptidase N (Homo sapiens, UniProt P15144); test: Inhibition of human recombinant AP-N ectopeptidase activity using alanine-MCA as substrate preincubated for 10 mins with substrate by fluorimetric analysis
Sequence (P15144 whole entry): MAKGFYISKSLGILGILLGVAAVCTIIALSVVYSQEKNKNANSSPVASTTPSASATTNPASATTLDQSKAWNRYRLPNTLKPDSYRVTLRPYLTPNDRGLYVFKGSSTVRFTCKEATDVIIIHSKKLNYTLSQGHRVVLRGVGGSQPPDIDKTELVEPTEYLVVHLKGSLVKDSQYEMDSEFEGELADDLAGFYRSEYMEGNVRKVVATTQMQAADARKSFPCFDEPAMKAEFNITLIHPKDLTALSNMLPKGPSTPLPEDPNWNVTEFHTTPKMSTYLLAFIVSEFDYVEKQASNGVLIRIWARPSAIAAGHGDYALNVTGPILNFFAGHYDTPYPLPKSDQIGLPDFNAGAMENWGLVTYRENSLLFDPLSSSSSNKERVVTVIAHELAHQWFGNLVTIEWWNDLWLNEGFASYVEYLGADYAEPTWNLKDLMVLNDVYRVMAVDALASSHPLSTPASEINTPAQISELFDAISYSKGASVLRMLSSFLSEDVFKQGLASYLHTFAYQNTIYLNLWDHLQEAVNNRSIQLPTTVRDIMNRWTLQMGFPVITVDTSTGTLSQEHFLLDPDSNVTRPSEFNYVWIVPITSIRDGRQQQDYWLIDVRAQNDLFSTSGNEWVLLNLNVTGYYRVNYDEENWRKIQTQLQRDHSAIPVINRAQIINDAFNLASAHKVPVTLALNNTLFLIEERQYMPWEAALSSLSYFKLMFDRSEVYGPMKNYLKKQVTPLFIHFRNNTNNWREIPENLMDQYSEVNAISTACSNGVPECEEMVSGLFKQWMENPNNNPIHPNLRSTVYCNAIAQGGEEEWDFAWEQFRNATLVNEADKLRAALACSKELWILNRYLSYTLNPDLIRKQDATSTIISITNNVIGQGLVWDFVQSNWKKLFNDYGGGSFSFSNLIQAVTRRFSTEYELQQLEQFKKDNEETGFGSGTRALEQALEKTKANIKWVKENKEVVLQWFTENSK
pIC50: −log10 of the molar value. Numbered stars: 1 amine (or outer) side, 2 acyl side, 3 side chain; on linkers, the order of the positions; unused ones are H or OH. Square brackets hold non-standard residues; d marks the D form. Peptide text beside a SMILES is read from it. β3hPhg = O=C(C[C@@H](N[*:1])c1ccccc1)[*:2]
ENDPOINT LABEL: pIC50

>>> measured("NC(=O)CC[C@H](N)C(=O)N[C@@H](CCCN=C(N)N)C(=O)N[C@H](CC(=O)N[C@@H](CO)C(=O)N[C@@H](CCCN=C(N)N)C(=O)O)c1ccccc1 (H-QR[β3hPhg]SR-OH)")
"< 4.15"

###

molecular target: Neprilysin (Homo sapiens); experiment: Inhibition of human recombinant NEP ectopeptidase activity using Abz-dRGL-(EDDnp) as substrate preincubated for 10 mins with substrate by fluorimetric analysis
Sequence (P08473 whole entry): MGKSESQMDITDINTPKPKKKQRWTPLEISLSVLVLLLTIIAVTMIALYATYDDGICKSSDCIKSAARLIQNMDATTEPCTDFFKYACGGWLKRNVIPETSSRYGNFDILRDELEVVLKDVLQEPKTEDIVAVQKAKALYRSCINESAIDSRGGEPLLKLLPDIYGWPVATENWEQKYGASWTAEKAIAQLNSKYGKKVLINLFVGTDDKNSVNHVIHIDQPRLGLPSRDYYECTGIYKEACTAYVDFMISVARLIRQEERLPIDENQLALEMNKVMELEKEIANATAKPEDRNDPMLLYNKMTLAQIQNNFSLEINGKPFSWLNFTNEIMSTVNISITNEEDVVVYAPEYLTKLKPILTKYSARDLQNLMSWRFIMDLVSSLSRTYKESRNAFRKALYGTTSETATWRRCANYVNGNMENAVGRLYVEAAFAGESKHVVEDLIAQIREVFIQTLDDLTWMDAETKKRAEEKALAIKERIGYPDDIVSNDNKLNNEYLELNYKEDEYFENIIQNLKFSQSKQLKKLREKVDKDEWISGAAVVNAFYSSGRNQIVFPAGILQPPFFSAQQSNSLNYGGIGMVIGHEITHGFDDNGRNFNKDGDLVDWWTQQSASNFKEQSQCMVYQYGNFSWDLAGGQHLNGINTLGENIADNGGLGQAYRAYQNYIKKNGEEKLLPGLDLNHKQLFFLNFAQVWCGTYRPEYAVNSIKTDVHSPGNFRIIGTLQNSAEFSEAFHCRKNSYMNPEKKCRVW
pIC50: −log10 of the molar value. Numbered stars: 1 amine (or outer) side, 2 acyl side, 3 side chain; on linkers, the order of the positions; unused ones are H or OH. Square brackets hold non-standard residues; d marks the D form. Peptide text beside a SMILES is read from it. β3hPhg = O=C(C[C@@H](N[*:1])c1ccccc1)[*:2]; Phg = N[C@H](C(=O)O)c1ccccc1
Examples of molecules with documented pIC50 follow.
ENDPOINT LABEL: pIC50

>>> measured("NC(=O)CC[C@H](N)C(=O)N[C@@H](CCCN=C(N)N)C(=O)N[C@H](CC(=O)N[C@@H](CO)C(=O)N[C@@H](CCCN=C(N)N)C(=O)O)c1ccccc1 (H-QR[β3hPhg]SR-OH)")
"< 4.00"
>>> measured("N=C(N)NCCC[C@H](NC(=O)[C@H](CO)NC(=O)[C@@H](NC(=O)[C@H](CCCNC(=N)N)NC(=O)[C@@H](N)CCC(N)=O)c1ccccc1)C(=O)O (H-QR[Phg]SR-OH)")
"< 4.00"
